The origin of these recorded values is ChEMBL document CHEMBL1128453.

Target: Angiotensin-converting enzyme (Rattus norvegicus, UniProt P47820)
Sequence (P47820 whole entry): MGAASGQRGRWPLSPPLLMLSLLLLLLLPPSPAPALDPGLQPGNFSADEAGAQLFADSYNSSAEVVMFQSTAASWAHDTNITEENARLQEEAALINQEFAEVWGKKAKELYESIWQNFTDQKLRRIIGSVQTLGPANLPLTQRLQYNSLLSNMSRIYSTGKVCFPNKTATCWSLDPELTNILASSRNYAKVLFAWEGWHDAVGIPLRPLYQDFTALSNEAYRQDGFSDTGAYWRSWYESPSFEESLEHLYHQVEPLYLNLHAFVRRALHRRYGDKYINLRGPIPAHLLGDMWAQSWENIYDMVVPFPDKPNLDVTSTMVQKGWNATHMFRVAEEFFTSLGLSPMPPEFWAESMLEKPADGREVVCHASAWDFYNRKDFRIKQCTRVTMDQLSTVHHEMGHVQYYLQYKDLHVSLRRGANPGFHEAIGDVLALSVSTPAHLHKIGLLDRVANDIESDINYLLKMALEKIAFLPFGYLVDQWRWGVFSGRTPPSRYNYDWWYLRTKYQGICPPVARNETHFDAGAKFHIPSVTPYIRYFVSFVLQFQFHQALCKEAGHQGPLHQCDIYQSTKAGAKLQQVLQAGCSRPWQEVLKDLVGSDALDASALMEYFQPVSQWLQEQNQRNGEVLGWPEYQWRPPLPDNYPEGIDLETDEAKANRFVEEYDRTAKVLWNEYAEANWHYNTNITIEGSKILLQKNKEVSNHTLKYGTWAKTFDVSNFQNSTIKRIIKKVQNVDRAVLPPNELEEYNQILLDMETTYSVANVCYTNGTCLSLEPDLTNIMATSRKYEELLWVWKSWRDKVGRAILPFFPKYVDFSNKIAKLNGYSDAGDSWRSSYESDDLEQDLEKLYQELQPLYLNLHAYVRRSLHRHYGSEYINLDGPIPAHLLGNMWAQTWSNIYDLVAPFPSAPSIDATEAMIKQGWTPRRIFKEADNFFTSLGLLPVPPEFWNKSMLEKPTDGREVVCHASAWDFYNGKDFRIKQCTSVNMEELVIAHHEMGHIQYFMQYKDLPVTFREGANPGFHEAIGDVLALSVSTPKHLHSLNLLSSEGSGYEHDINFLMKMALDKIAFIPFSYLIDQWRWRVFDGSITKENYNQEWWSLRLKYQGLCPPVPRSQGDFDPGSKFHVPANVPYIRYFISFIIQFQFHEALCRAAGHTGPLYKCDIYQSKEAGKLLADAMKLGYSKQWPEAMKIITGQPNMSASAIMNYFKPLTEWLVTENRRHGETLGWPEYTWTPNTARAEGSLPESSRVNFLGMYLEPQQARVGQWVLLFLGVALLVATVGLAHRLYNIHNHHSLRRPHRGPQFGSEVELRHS
pKi: −log10 of the molar value.
result-type: pKi

# sample-smiles, measured
records = [
    ("CC(C)[C@H](NC(=O)[C@@H]1CCCN1C(=O)[C@@H](NC(=O)c1ccc(C(=O)NS(=O)(=O)c2ccc(Cl)cc2)cc1)C(C)C)C(=O)c1nc2cc(C(N)=O)ccc2o1", "< 3.70"),
]

====

assay: Percentage reduction in erythrocytes following elastase challenge/treatment.; assay type: functional; design: concentration or dose not given beside the values
result-type: Reduction (%)

# sample-smiles, units, measured
records = [
    ("COc1ccc2oc(C(=O)[C@@H](NC(=O)[C@@H]3CCCN3C(=O)[C@@H](NC(=O)c3ccc(C(=O)NS(=O)(=O)c4ccc(Cl)cc4)cc3)C(C)C)C(C)C)nc2c1", "%", 21),
    ("CC(C)[C@H](NC(=O)[C@@H]1CCCN1C(=O)[C@@H](NC(=O)c1ccc(S(N)(=O)=O)cc1)C(C)C)C(=O)c1nc2ccccc2o1", "%", -44),
    ("CC(C)[C@H](NC(=O)[C@@H]1CCCN1C(=O)[C@@H](NC(=O)c1ccc(C(=O)NS(=O)(=O)c2ccc(Cl)cc2)cc1)C(C)C)C(=O)c1nc2cc(C(=O)O)ccc2o1", "%", 94),
    ("COC(=O)c1ccc2oc(C(=O)[C@@H](NC(=O)[C@@H]3CCCN3C(=O)[C@@H](NC(=O)c3ccc(NS(=O)(=O)C(F)(F)F)cc3)C(C)C)C(C)C)nc2c1", "%", 82),
    ("CC(C)[C@H](NC(=O)[C@@H]1CCCN1C(=O)[C@@H](NC(=O)c1ccc(NC(=O)NS(=O)(=O)c2ccccc2)cc1)C(C)C)C(=O)c1nc2ccccc2o1", "%", 62),
    ("COC(=O)c1ccc2oc(C(=O)[C@@H](NC(=O)[C@@H]3CCCN3C(=O)[C@@H](NC(=O)c3ccc(C(=O)NS(=O)(=O)c4ccc(Cl)cc4)cc3)C(C)C)C(C)C)nc2c1", "%", 71),
    ("CC(C)[C@H](NC(=O)[C@@H]1CCCN1C(=O)[C@@H](NC(=O)c1ccc(C(=O)NS(=O)(=O)c2ccc(Cl)cc2)cc1)C(C)C)C(=O)c1nc2cc(CO)ccc2o1", "%", 46),
    ("COC(=O)c1ccc2oc(C(=O)[C@@H](NC(=O)[C@@H]3CCCN3C(=O)[C@@H](NC(=O)c3ccc(S(N)(=O)=O)cc3)C(C)C)C(C)C)nc2c1", "%", -32),
    ("CC(C)[C@H](NC(=O)[C@@H]1CCCN1C(=O)[C@@H](NC(=O)c1ccc(C(=O)NS(=O)(=O)c2ccc(Cl)cc2)cc1)C(C)C)C(=O)c1nc2ccccc2o1", "%", 80),
    ("CC(C)[C@H](NC(=O)[C@@H]1CCCN1C(=O)[C@@H](NC(=O)c1ccc(C(=O)NS(=O)(=O)C(C)C)cc1)C(C)C)C(=O)c1nc2ccccc2o1", "%", 60),
    ("COC(=O)c1ccc2oc(C(=O)[C@@H](NC(=O)[C@@H]3CCCN3C(=O)[C@@H](NC(=O)c3ccc(NC(=O)NS(=O)(=O)c4ccc(Cl)cc4)cc3)C(C)C)C(C)C)nc2c1", "%", 13),
    ("CC(C)[C@H](NC(=O)[C@@H]1CCCN1C(=O)[C@@H](NC(=O)c1ccc(C(=O)NS(=O)(=O)c2ccc(Cl)cc2)cc1)C(C)C)C(=O)c1nc2cc(O)ccc2o1", "%", 57),
]

====

test: Percentage reduction in erythrocytes following elastase challenge/treatment.; type: functional; design: concentration or dose not given beside the values

# sample-smiles, Reduction, %
data = [
    ("CC(C)[C@H](NC(=O)[C@@H]1CCCN1C(=O)[C@@H](NC(=O)c1ccc(C(=O)NS(=O)(=O)c2ccc(Cl)cc2)cc1)C(C)C)C(=O)c1nc2cc(C(N)=O)ccc2o1", 64),
    ("CC(C)[C@H](NC(=O)[C@@H]1CCCN1C(=O)[C@@H](NC(=O)c1ccc(C(=O)NS(C)(=O)=O)cc1)C(C)C)C(=O)c1nc2ccccc2o1", 84),
    ("COC(=O)c1ccc2nc(C(=O)[C@@H](NC(=O)[C@@H]3CCCN3C(=O)[C@@H](NC(=O)c3ccc(C(=O)NS(=O)(=O)c4ccc(Cl)cc4)cc3)C(C)C)C(C)C)oc2c1", 76),
    ("CC(C)[C@H](NC(=O)[C@@H]1CCCN1C(=O)[C@@H](NC(=O)c1ccc(C(=O)NS(=O)(=O)c2ccccc2)cc1)C(C)C)C(=O)c1nc2ccccc2o1", 58),
    ("CC(C)[C@H](NC(=O)[C@@H]1CCCN1C(=O)[C@@H](NC(=O)c1ccc(NC(=O)NS(=O)(=O)c2ccc(Cl)cc2)cc1)C(C)C)C(=O)c1nc2ccccc2o1", 68),
]
